Entries and their measured EC50 follow.
- Test system: HCV genotype 1a (HCV-1a) replicon cells
- Assay notes: HCV genotype 1a replicon luciferase assay (EC50)
- Format: cell-based, hepatitis C virus genotype 1a (H77 clone)
- Test settings: 3 days, luciferase (Bright-Glo)

Before answering, review these 3 worked examples.
QUERY: What measured EC50 goes with COC(=O)N[C@H](C(=O)N1CCC[C@H]1c1ncc(-c2ccc(-c3ccc(-c4[nH]c([C@@H]5CCCN5C(=O)[C@@H](NC(=O)OC)C(C)C)c5c4OCC5)cc3)cc2)[nH]1)C(C)C [AG_114_A] ?
RESULT: 0.01 to 0.1 µM

QUERY: What measured EC50 goes with COC(=O)NC(C(=O)N1CCCC1c1[nH]c(-c2ccc(-c3ccc(-c4cnc([C@@H]5CCCN5C(=O)[C@@H](NC(=O)OC)C(C)C)[nH]4)cc3)cc2)c2c1CCC2)C1CCOC1 (single isomer, unassigned) [AG_025_B] ?
RESULT: 0.01 to 0.1 µM

QUERY: What measured EC50 goes with COC(=O)N[C@H](C(=O)N1CCC[C@H]1c1ncc(-c2ccc(-c3ccc(-c4cnc([C@H]5C6CCC(C6)[C@@H]5C(=O)NC(c5cccnc5)C(C)C)[nH]4)cc3)cc2)[nH]1)C(C)C (single isomer, unassigned) [AA_233_A] ?
RESULT: 0.000101 to 0.001 µM

Continuing:
QUERY: What measured EC50 goes with COC(=O)N[C@H](C(=O)N1CCC[C@H]1c1ncc(-c2ccc(-c3ccc(-c4cnc(C5C6CCC(C6)[C@@H]5C(=O)NC(C)c5cnccn5)[nH]4)cc3)cc2)[nH]1)[C@@H](C)OC (single isomer, unassigned) [AA_281_C] ?
RESULT: 0.001 to 0.01 µM
